tested on: Zea mays (ZEAMX); experiment: Post-emergence herbicide test, glasshouse pots; type: in vivo; conditions: sprayed after 8 days cultivation, 1000 g/ha, evaluated after 13 days
Observation type: ZEAMX, percentage damage caused to the plant (five-point scale)

>>> reported_value("CCn1cc(-c2ccc(Cl)cc2F)c(=O)c(C(=O)O)c1-c1ccc(Cl)c(Cl)c1 [Compound 2]")
"4 (4=61-80%)"
>>> reported_value("CCn1cc(-c2cc(C(=O)OC(C)C)c(Cl)cc2F)c(=O)c(C(=O)O)c1-c1ccc(Cl)c(Cl)c1 [Compound 6]")
"4 (4=61-80%)"
>>> reported_value("CCn1cc(-c2cccc(OC(F)(F)F)c2F)c(=O)c(C(=O)O)c1-c1ccc(Cl)c(Cl)c1 [Compound 11]")
"1 (1=0-20%)"

Please give the measured ZEAMX, percentage damage caused to the plant (five-point scale) for this compound: CCn1cc(-c2cc(OC(F)(F)F)ccc2F)c(=O)c(C(=O)O)c1-c1ccc(Cl)c(Cl)c1 [Compound 5]
4 (4=61-80%)

Give its ZEAMX, percentage damage caused to the plant (five-point scale) value. Item: CCn1cc(-c2ccc(Cl)cc2)c(=O)c(C(=O)O)c1-c1ccc(Cl)c(Cl)c1 [Compound 1]
3 (3=41-60%)

Please look up its ZEAMX, percentage damage caused to the plant (five-point scale): CCn1cc(-c2cc(C(=O)OC(C)C)ccc2F)c(=O)c(C(=O)O)c1-c1ccc(Cl)c(Cl)c1 [Compound 8]
3 (3=41-60%)

// lookup ZEAMX, percentage damage caused to the plant (five-point scale) for CCn1cc(-c2cc(OC(F)(F)F)ccc2Cl)c(=O)c(C(=O)O)c1-c1ccc(Cl)c(Cl)c1 [Compound 7]
3 (3=41-60%)
